Tested on: SW1990 pancreatic adenocarcinoma cells [homozygous G12D]
Assay: Cancer cell line proliferation (CellTiter-Glo), SW1990
Format: cell-based
Conditions: Homo sapiens, 72 hr treatment, read-out: SW1990 CTG (EC50)
reported.endpoint: EC50

compound | reported.endpoint | result
C#Cc1cccc2cc(O)cc(-c3ncc4c(N5CC6CCC(C5)N6)nc(OCC5(CN6CCN(Cc7ccc(-n8c(C(=O)NC(C)C(F)(F)F)nnc8-c8cc(C(C)C)c(O)cc8O)cc7)CC6)CC5)nc4c3F)c12 (centres unmarked) | EC50 | 100 to 1000 nM
C#Cc1c(F)ccc2cc(O)cc(-c3ncc4c(N5CC6CCC(C5)N6)nc(OCC5CN(Cc6ccc(-n7c(C(=O)NCC(F)(F)F)nnc7-c7cc(C(C)C)c(O)cc7O)cc6)C5)nc4c3F)c12 | EC50 | 100 to 1000 nM
C#Cc1cccc2cc(O)cc(-c3ncc4c(N5CC6CCC(C5)N6)nc(OC[C@@H]5C[C@H](CN6CCN(Cc7ccc(-n8c(C(=O)NCC(F)(F)F)nnc8-c8cc(C(C)C)c(O)cc8O)cc7)CC6)CN5C)nc4c3F)c12 | EC50 | < 100 nM
C#Cc1c(F)ccc2cc(O)cc(-c3ncc4c(N5CC6CCC(C5)N6)nc(OCC5(CN6CCN(C7CCN(Cc8ccc(-n9c(C(=O)NC(C)C(F)(F)F)nnc9-c9cc(C(C)C)c(O)cc9O)cc8)CC7)CC6)CC5)nc4c3F)c12 (centres unmarked) | EC50 | < 100 nM
Cc1cccc2cccc(-c3ncc4c(N5CC6CCC(C5)N6)nc(OC[C@@H]5CC[C@H](CN6CCN(Cc7ccc(-n8c(C(=O)NC(C)C(F)(F)F)nnc8-c8cc(C(C)C)c(O)cc8O)cc7)CC6)N5C)nc4c3F)c12 (some centres unmarked) | EC50 | 100 to 1000 nM
CCNC(=O)c1nnc(-c2cc(C(C)C)c(O)cc2O)n1-c1ccc(CN2CCC(CN3CCN([C@H]4C[C@@H](COc5nc(N6CC7CCC(C6)N7)c6cnc(-c7cccc(F)c7C)c(F)c6n5)N(C)C4)CC3)CC2)cc1 | EC50 | < 100 nM
C#Cc1c(F)ccc2cc(O)cc(-c3ncc4c(N5CC6CCC(C5)N6)nc(OCC5(CN6CC(N7CCN(Cc8ccc(-n9c(C(=O)NC(C)C(F)(F)F)nnc9-c9cc(C(C)C)c(O)cc9O)cc8)CC7)C6)CC5)nc4c3F)c12 (centres unmarked) | EC50 | < 100 nM
C#Cc1c(F)ccc2cc(O)cc(-c3ncc4c(N5CC6CCC(C5)N6C(=O)C(F)(F)F)nc(OCC5(CN6CCN(CC7CCN(Cc8ccc(-n9c(C(=O)NCC)nnc9-c9cc(C(C)C)c(O)cc9O)cc8)CC7)CC6)CC5)nc4c3F)c12 | EC50 | < 100 nM

Query block: What value of EC50 has been reported for the following compound? C#Cc1c(F)ccc2cc(O)cc(-c3ncc4c(N5CC6CCC(C5)N6)nc(OC5CN(Cc6ccc(-n7c(C(=O)NCC(F)(F)F)nnc7-c7cc(C(C)C)c(O)cc7O)cc6)C5)nc4c3F)c12
Result block: > 1000 nM

Query block: Record request: EC50 value, item C#Cc1cccc2cccc(-c3ncc4c(N5CC6CCC(C5)N6)nc(OC[C@@H]5C[C@H](CN6CCN(Cc7ccc8c(c7)CN(C(=O)c7cc(C(C)C)c(O)cc7O)C8)CC6)CN5C)nc4c3F)c12
Result block: 100 to 1000 nM

Query block: Quick one: EC50 of C#Cc1cccc2cc(O)cc(-c3ncc4c(N5CC6CCC(C5)N6C(C)=O)nc(OCC5(CN6CCN(CC7CCN(Cc8ccc9c(c8)CN(C(=O)c8cc(C(C)C)c(O)cc8O)C9)CC7)CC6)CC5)nc4c3F)c12 ?
Result block: 100 to 1000 nM

Query block: Consider the compound C#Cc1c(F)ccc2cc(O)cc(-c3ncc4c(N5CC6CCC(C5)N6)nc(CCC5(CN6CCN(C7CCN(Cc8ccc9c(c8)CN(C(=O)c8cc(C(C)C)c(O)cc8O)C9)CC7)CC6)CC5)nc4c3F)c12 and give its measured EC50.
Result block: < 100 nM

Query block: # get_value(readout='EC50', item= C#Cc1cccc2cc(O)cc(-c3ncc4c(N5CC6CCC(C5)N6)nc(OCC5(CN6CCC(C(=O)N7CCN(C(=O)C8CCN(Cc9ccc%10c(c9)CN(C(=O)c9cc(C(C)C)c(O)cc9O)C%10)CC8)CC7)CC6)CC5)nc4c3F)c12 )
Result block: 100 to 1000 nM

Query block: Which EC50 is listed for C#Cc1c(F)ccc2cc(O)cc(-c3nc(OC)c4c(N5CC6CCC(C5)N6)nc(OCC5(CN6CCN(Cc7ccc8c(c7)CN(C(=O)c7cc(C(C)C)c(O)cc7O)C8)CC6)CC5)nc4c3F)c12 ?
Result block: < 100 nM

Query block: Could you tell me which EC50 is on file for C#Cc1cccc2cc(O)cc(-c3ncc4c(N5CC6CCC(C5)N6)nc(OCC5(CN6CCC(C(=O)N7CCN(Cc8ccc(-n9c(C(=O)NC(C)C(F)(F)F)nnc9-c9cc(C(C)C)c(O)cc9O)cc8)CC7)CC6)CC5)nc4c3F)c12 (centres unmarked) ?
Result block: < 100 nM

Query block: Any idea what its EC50 is? The compound is C#Cc1c(F)ccc2cc(O)cc(-c3nc(OC)c4c(N5CC6CCC(C5)N6)nc(OCC5(CN6CCC(C7CCN(Cc8ccc9c(c8)CN(C(=O)c8cc(C(C)C)c(O)cc8O)C9)CC7)CC6)CC5)nc4c3F)c12
Result block: < 100 nM

Query block: Value lookup for EC50; key = C#Cc1cccc2cc(O)cc(-c3ncc4c(N5CC6CCC(C5)N6)nc(OCC5(CN6CCN(CC7CCN(c8ccc(-n9c(C(=O)NCC)nnc9-c9cc(C(C)C)c(O)cc9O)cc8)CC7)CC6)CC5)nc4c3F)c12
Result block: < 100 nM
